- target-or-test-system: Thyrotropin receptor (Homo sapiens)
- procedure-summary: qHTS assay to identify small molecule antagonists of the thyroid stimulating hormone receptor (TSHR) signaling pathway (AID 1259385); further: nearly all actives have a fitted effect of over 20% in size
- condition-info: TSHR-HEK293 cAMP HTRF, TSH-stimulated antagonist mode; series mostly up to 92.4 µM
Records with an inconclusive call do not appear. The source made the active and inactive calls. The call rests on the fitted dose curve.
In this exercise, the only acceptable responses are active, inactive

# input Hi, do you know how "CCC(=O)OC/C=C(\C)CCC=C(C)C" came out in this test?
# output inactive

# input Hi, do you know how CCCCCCCCCCCCCCCCC(C(=O)O)C(O)(CC(=O)O)C(=O)O (centres undefined) came out in this test?
# output inactive

# input Hi, do you know how "Cn1c(=O)[nH]c2ncn(C)c2c1=O" came out in this test?
# output inactive

# input Hi, do you know how "C/C=C/C(=O)C1=C(C)C=CCC1(C)C" came out in this test?
# output inactive

# input Hi, do you know how "Cc1ccc(C=O)cc1" came out in this test?
# output inactive

# input Hi, do you know how "CCCCCCCCCCCCCCCCCCNC(=O)OC1CCN(C(=O)OC[C@H](COC(=O)N(Cc2cccc[n+]2CC)C(=O)c2ccccc2OC)OC)CC1" came out in this test?
# output active

# input Hi, do you know how "NCc1ccco1" came out in this test?
# output inactive

# input Hi, do you know how "O=C(c1ccccc1)c1ccc(Cl)cc1" came out in this test?
# output inactive

# input Hi, do you know how "O=C1OC(=O)c2cc(-c3ccc4c(c3)C(=O)OC4=O)ccc21" came out in this test?
# output inactive

# input Hi, do you know how "N#Cc1ccc(C/C(=N/NC(=O)Nc2ccc(OC(F)(F)F)cc2)c2cccc(C(F)(F)F)c2)cc1" came out in this test?
# output inactive

# input Hi, do you know how "CC/C=C(\C)C=O" came out in this test?
# output inactive

# input Hi, do you know how O=C1OC(O)C(C(Cl)Cl)=C1Cl (centres undefined) came out in this test?
# output inactive

# input Hi, do you know how "O=c1cc[nH]cc1" came out in this test?
# output inactive

# input Hi, do you know how "CCCCCCCCCC[N+](C)(CCCCCCCCCC)CCC[Si](OC)(OC)OC" came out in this test?
# output inactive

# input Hi, do you know how "O=C1CCC(=O)N1" came out in this test?
# output inactive

# input Hi, do you know how "[Cl][Sc]([Cl])[Cl]" came out in this test?
# output inactive

# input Hi, do you know how CCCC(C)C=O (centres undefined) came out in this test?
# output inactive

# input Hi, do you know how "CCN(CC)c1ccc(C=O)c(O)c1" came out in this test?
# output inactive

# input Hi, do you know how CC(Cc1ccc(O)c(O)c1)C(C)Cc1ccc(O)c(O)c1 (centres undefined) came out in this test?
# output inactive

# input Hi, do you know how "CCCCCCCC/C=C\CCCCCCCC(=O)N(CCO)CCO" came out in this test?
# output inactive

# input Hi, do you know how "CCCCCCCCOC(=O)c1cc(O)c(O)c(O)c1" came out in this test?
# output inactive

# input Hi, do you know how "COc1cc(OC)nc(NC(=O)NS(=O)(=O)Nc2ccccc2C(=O)N(C)C)n1" came out in this test?
# output inactive

# input Hi, do you know how "CC(c1cc(C(C)(C)C)cc(C(C)(C)C)c1O)c1cc(C(C)(C)C)cc(C(C)(C)C)c1O" came out in this test?
# output inactive

# input Hi, do you know how "Nc1ccc(F)c([N+](=O)[O-])c1" came out in this test?
# output inactive

# input Hi, do you know how CCc1cccc(C)c1N(C(=O)C(=O)O)C(C)COC (centres undefined) came out in this test?
# output inactive

# input Hi, do you know how "Cc1ccc(Cl)c(N)c1Cl" came out in this test?
# output inactive

# input Hi, do you know how "[Cl][Dy]([Cl])[Cl]" came out in this test?
# output inactive

# input Hi, do you know how "Cc1cc(Br)ccc1NC(=O)CCl" came out in this test?
# output inactive

# input Hi, do you know how "CCCCCCCCSCc1cc(C)c(O)c(CSCCCCCCCC)c1" came out in this test?
# output inactive

# input Hi, do you know how O=C(Nc1ccc([N+](=O)[O-])cc1)Nc1ccc([N+](=O)[O-])cc1 (tested in a mixture with another compound) came out in this test?
# output inactive

# input Hi, do you know how "CN(C[C@@H](CC[N+]12CCC(C3CCCCC3)(CC1)CC2)c1ccc(Cl)c(Cl)c1)C(=O)c1cc(C(F)(F)F)cc(C(F)(F)F)c1" came out in this test?
# output inactive

# input Hi, do you know how "Cc1c(Cl)c(=O)oc2cc(O)ccc12" came out in this test?
# output inactive

# input Hi, do you know how CCc1cccc(C)c1N(C(=O)CS(=O)(=O)O)C(C)COC (centres undefined) came out in this test?
# output inactive

# input Hi, do you know how "CC1(C)[C@H]2CC[C@]1(C)C(=O)C2" came out in this test?
# output inactive

# input Hi, do you know how "COCCC(=O)OC" came out in this test?
# output inactive

# input Hi, do you know how C=C1C(CCl)(CCl)C2(Cl)C(Cl)C(Cl)C1(Cl)C2(Cl)Cl (centres undefined) came out in this test?
# output inactive

# input Hi, do you know how C=C(C)C1CCC(C)CC1O (centres undefined) came out in this test?
# output inactive

# input Hi, do you know how CC(C=O)c1ccccc1 (centres undefined) came out in this test?
# output inactive

# input Hi, do you know how "Cc1ccc2sc3cccc(C)c3c2c1" came out in this test?
# output inactive

# input Hi, do you know how "CCn1c2ccccc2c2ccccc21" came out in this test?
# output inactive

# input Hi, do you know how "COc1ccc(OC)c(N=Nc2c(O)ccc3ccccc23)c1" came out in this test?
# output active

# input Hi, do you know how CC(C)(C)c1ccc(OC2CCCCC2O)cc1 (centres undefined) came out in this test?
# output inactive

# input Hi, do you know how "CCOC(=O)OC(=O)OCC" came out in this test?
# output inactive

# input Hi, do you know how "C=Cc1ccc(O)c(OC)c1" came out in this test?
# output inactive

# input Hi, do you know how "CN1CCN(C)CC1" came out in this test?
# output inactive

# input Hi, do you know how CCC(O)CO (centres undefined) came out in this test?
# output inactive

# input Hi, do you know how "Nc1ccc(Oc2cccc(Oc3ccc(N)cc3)c2)cc1" came out in this test?
# output inactive

# input Hi, do you know how "O[Si](c1ccccc1)(c1ccccc1)c1ccccc1" came out in this test?
# output inactive

# input Hi, do you know how "CCOC=C(C(=O)OCC)C(=O)OCC" came out in this test?
# output inactive

# input Hi, do you know how "CC(C)(C)c1cc(CCC(=O)OCCSCCOC(=O)CCc2cc(C(C)(C)C)c(O)c(C(C)(C)C)c2)cc(C(C)(C)C)c1O" came out in this test?
# output inactive

# input Hi, do you know how "Cc1cccc(C)c1C" came out in this test?
# output inactive

# input Hi, do you know how "CN1CCN(CCCN2c3ccccc3Sc3ccc(C(F)(F)F)cc32)CC1" came out in this test?
# output active

# input Hi, do you know how "N#Cc1nc(Cl)c(Cl)c(Cl)c1Cl" came out in this test?
# output inactive

# input Hi, do you know how "C=C1CC[C@H]2O[C@]2(C)CC[C@@H]2[C@@H]1CC2(C)C" came out in this test?
# output inactive
